target.or.system: renin (Homo sapiens)
Sequence (P00797 67-406): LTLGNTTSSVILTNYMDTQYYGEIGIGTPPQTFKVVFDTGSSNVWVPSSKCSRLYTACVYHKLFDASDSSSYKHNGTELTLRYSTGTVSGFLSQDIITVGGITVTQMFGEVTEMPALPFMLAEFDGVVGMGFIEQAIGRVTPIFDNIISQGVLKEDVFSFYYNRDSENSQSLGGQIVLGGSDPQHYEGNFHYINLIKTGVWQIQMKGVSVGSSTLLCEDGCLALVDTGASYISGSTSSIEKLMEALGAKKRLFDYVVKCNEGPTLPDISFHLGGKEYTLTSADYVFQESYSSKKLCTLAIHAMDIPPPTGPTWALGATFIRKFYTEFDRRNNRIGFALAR
Consider the following compounds; for each one, report its pIC50.
Answers are plain numbers, as −log10 of the molar value.

Solved cases below.
compound	pIC50
CCC(C)CNC(=O)/C=C/C(O)[C@H](Cc1ccccc1)NC(=O)[C@H](Cc1c[nH]cn1)NC(=O)[C@H](Cc1ccccc1)NC(=O)OC(C)(C)C (stereo partly drawn) [Example 84]	5.85
CC(C)CC(NC(=O)CCC(=O)C(Cc1ccccc1)NC(=O)c1ccccc1)C(O)CC(=O)NC(C)C(=O)NC(CC(C)C)C(O)CC(=O)NCc1ccccc1 (stereo not drawn) [Example 48]	4.52
CC(C)C[C@@H](CN(Cc1ccccc1)C(=O)OCc1ccccc1)NC(=O)C[C@H](O)[C@H](CC(C)C)NC(=O)[C@@H](NC(=O)[C@H](Cc1ccccc1)NC(=O)OC(C)(C)C)C(C)C [Example 56]	4.80
Cc1c(C)c(C)c(C[C@H](CN[C@@H](Cc2c[nH]cn2)C(=O)N[C@@H](CC(C)C)[C@@H](O)CC(=O)N[C@@H](CC(C)C)C(=O)NC2CCN(Cc3ccccc3)CC2)NC(=O)OC(C)(C)C)c(C)c1C [Example 61]	4.52
CC(C)CC(=O)N[C@@H](Cc1ccccc1)C(=O)N[C@H](CN[C@@H](CC(C)C)[C@@H](O)CC(=O)N[C@@H](CC(C)C)C(=O)NCc1ccccc1)Cc1c[nH]cn1 [Example 66]	5.46
CC(C)CC(=O)N[C@@H](Cc1ccccc1)C(=O)N[C@@H](Cc1c[nH]cn1)C(=O)N[C@@H](CC1CCCCC1)C(O)CC(CC(C)C)C(=O)NCc1cccc(CN)c1 (stereo partly drawn) [Example 81]	7.27

Batch: pIC50 for all items listed.
1. CCOC(=O)C[C@H](O)[C@H](CC(C)C)NC(=O)[C@@H](NC[C@@H](NC(=O)CC(C)C)C(C)C)C(C)C [Example 53]
2. CC(C)C[C@H](NC(=O)C/C=C/[C@H](Cc1ccccc1)NC(=O)OC(C)(C)C)[C@@H](O)CC(=O)N[C@@H](C)C(=O)N[C@@H](CC(C)C)[C@@H](O)CC(=O)NCc1ccccc1 [Example 1]

1. 4.55
2. 5.09
